Target: T1, B7H3 (human, UniProt Q5ZPR3 29-534)
T1 sequence (looked up): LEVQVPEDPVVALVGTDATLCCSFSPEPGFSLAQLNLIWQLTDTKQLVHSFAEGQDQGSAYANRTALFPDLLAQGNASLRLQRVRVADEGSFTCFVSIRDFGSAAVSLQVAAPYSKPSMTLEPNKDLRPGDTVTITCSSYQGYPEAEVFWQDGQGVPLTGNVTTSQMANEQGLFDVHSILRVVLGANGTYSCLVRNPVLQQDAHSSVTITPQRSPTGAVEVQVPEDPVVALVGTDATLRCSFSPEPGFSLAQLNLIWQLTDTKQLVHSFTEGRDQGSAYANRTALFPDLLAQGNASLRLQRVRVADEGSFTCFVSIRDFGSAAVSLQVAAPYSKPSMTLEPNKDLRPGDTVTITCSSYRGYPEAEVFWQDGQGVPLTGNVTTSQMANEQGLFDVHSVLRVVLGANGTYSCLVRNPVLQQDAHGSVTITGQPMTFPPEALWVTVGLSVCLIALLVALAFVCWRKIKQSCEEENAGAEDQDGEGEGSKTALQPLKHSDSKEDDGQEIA
Test: cell-based or functional assay
attributeMeasured: Emax (%), ADC direct killing, Capan-1 (Low), 3D
Give bare numbers, in %.

binder	u	quantitativeReadout
ADC4-B (antibody, human IgG1, kappa, V domains shown, conjugator-linker-payload on cysteine thiols after TCEP reduction (DAR8); residues not numbered; structure given only as a drawing) VH: QVQLVQSGAEVKKPGSSVKVSCKASGYTFTNYVMHWVRQAPGQGLEWMGYINPYNDDVKYNEKFKGRVTITADESTSTAYMELSSLRSEDTAVYYCARWGYYGSPLYYFDYWGQGTLVTVSS VL: EIVLTQSPATLSLSPGERATLSCRASSRLIYMHWYQQKPGQAPRPLIYATSNLASGIPARFSGSGSGTDFTLTISSLEPEDFAVYYCQQWNSNPPTFGQGTKVEIKR	%	84.9
ADC4-8 (antibody, human IgG1, kappa, V domains shown, conjugator-linker-payload on cysteine thiols after TCEP reduction (DAR8), maleimide hydrolysed; residues not numbered; structure given only as a drawing) VH: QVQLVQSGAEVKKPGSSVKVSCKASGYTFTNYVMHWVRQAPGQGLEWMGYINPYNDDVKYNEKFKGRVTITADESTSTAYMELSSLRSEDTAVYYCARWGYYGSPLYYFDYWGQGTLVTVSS VL: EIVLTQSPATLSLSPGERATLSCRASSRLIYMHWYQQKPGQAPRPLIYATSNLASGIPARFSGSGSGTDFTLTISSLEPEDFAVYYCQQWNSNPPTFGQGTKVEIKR	%	66.6
ADC4-10 (antibody, human IgG1, kappa, V domains shown, conjugator-linker-payload on cysteine thiols after TCEP reduction (DAR8), maleimide hydrolysed; residues not numbered; structure given only as a drawing) VH: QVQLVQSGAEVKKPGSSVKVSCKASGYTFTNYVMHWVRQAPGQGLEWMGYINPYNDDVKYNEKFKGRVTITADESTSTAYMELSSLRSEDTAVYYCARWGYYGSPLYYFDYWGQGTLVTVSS VL: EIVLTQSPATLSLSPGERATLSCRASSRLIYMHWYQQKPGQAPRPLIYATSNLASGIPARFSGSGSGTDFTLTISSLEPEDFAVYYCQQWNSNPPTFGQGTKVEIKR	%	68.4

In the following, a different binder is considered.
The binder ADC4-9 (antibody, human IgG1, kappa, V domains shown, conjugator-linker-payload on cysteine thiols after TCEP reduction (DAR8), maleimide hydrolysed; residues not numbered; structure given only as a drawing) VH: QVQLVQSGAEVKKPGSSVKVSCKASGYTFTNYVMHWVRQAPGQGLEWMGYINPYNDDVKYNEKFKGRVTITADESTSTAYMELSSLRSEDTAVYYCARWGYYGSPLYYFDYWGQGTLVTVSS VL: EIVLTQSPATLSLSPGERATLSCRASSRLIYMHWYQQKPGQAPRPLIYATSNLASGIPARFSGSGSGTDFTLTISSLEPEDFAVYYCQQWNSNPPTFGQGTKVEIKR showed Emax (%), ADC direct killing, Capan-1 (Low), 3D equal to 78.8
